Tested on: Salmonella typhimurium
Experiment: Genotoxicity in Salmonella typhimurium TA98 by Ames test in presence of S9 fractions
Assay type: toxicity, organism-based, S9 Fraction
Conditions: salmonella enterica subsp. enterica serovar typhimurium
Readout: Activity

{"Mol": "O=C(Nc1cccc2cn[nH]c12)N1CCN(Cc2cccc(Oc3ccc(Cl)cc3)c2)CC1", "Target Entity": "Salmonella typhimurium", "Measured Result": "Toxic"}
{"Mol": "O=C(Nc1noc2cnccc12)N1CCN(Cc2cccc(Oc3ccc(Cl)cc3)c2)CC1", "Target Entity": "Salmonella typhimurium", "Measured Result": "Non-toxic"}
{"Mol": "O=C(Nc1cncc2ccccc12)N1CCN(Cc2cccc(Oc3ccc(Cl)cc3)c2)CC1", "Target Entity": "Salmonella typhimurium", "Measured Result": "Toxic"}
{"Mol": "O=C(Nc1cn2ccccc2n1)N1CCN(Cc2cccc(Oc3ccc(Cl)cc3)c2)CC1", "Target Entity": "Salmonella typhimurium", "Measured Result": "Non-toxic"}
{"Mol": "O=C(Nc1ccccc1)N1CCN(Cc2cccc(Oc3ccc(Cl)cc3)c2)CC1", "Target Entity": "Salmonella typhimurium", "Measured Result": "Non-toxic"}
{"Mol": "O=C(Nc1cnc2ccccn12)N1CCN(Cc2cccc(Oc3ccc(Cl)cc3)c2)CC1", "Target Entity": "Salmonella typhimurium", "Measured Result": "Non-toxic"}
{"Mol": "O=C(Nc1ccn2ccnc2n1)N1CCN(Cc2cccc(Oc3ccc(Cl)cc3)c2)CC1", "Target Entity": "Salmonella typhimurium", "Measured Result": "Non-toxic"}
{"Mol": "O=C(Nc1ccnc2nccn12)N1CCN(Cc2cccc(Oc3ccc(Cl)cc3)c2)CC1", "Target Entity": "Salmonella typhimurium", "Measured Result": "Non-toxic"}
{"Mol": "O=C(Nc1ccc2nccn2c1)N1CCN(Cc2cccc(Oc3ccc(Cl)cc3)c2)CC1", "Target Entity": "Salmonella typhimurium", "Measured Result": "Non-toxic"}
